# assay_name: NCI Yeast Anticancer Drug Screen. Data for the bub3 strain (AID 167)
# condition_label: S. cerevisiae bub3 mutant strain, at 5.0 µM (retest, dose inferred, filed as 0.5)
Compounds without any hit were thinned out: in the full panel of roughly 79,000, 15% have a hit. Calls of active or inactive are those of the source. Rule as the data show it: active = growth inhibition above about 70%; inactive = the rest.
Outcomes: y (active), n (inactive)

molecule	class_assignment
Cc1cccc2c1C(=O)N(CC[P+](c1ccccc1)(c1ccccc1)c1ccccc1)C2=O	y
C(=C\N1CCCCC1)/c1nnnn1-c1ccccc1	n
CN(c1ccccc1)c1c2c(oc(=O)c1Cl)-c1ccccc1SC2	n
CCOC(=O)Nc1cc2c(cn1)[nH]c1ccccc12	n
S=c1[nH]c2c(-c3ccccc3)cccc2s1	n
CC(NNC(=S)N1CCCCCC1)c1cc2ccccc2cn1 (configuration not stated)	y
CC(=O)N1CC(C)CC2OC3(CCC4C5CCC6CC(O)CCC6(C)C5C(=O)C4C3C)C(C)C21 (configuration not stated)	n
Cc1cc(C(O)(C(F)(F)F)C(F)(F)F)c(I)c(C(O)(C(F)(F)F)C(F)(F)F)c1	y
O=C(CC(c1ccccc1)c1ccccc1)NCCCCN1CCCCCCC1	n
CN(C)C(N)=NC#N	n
Cc1occc1C(=S)Nc1ccc(Cl)c(/C=N/OC(C)C)c1	n
COCC(O)Cn1cc([N+](=O)[O-])nc1C (configuration not stated)	n
FC(F)(F)c1nc2cc(SSc3cc4nc(C(F)(F)F)[nH]c4cc3Cl)c(Cl)cc2[nH]1	n
COC(=O)N/N=C(\c1ccc(O)cc1)C(C)C1(O)C(=O)Nc2ccccc21 (configuration not stated)	n
Cc1c[n+](CC(=O)c2ccc(I)cc2)c(C)s1	n
O=C1C=CC(=O)N1c1ccccc1 (tested in a mixture with another compound)	n
Cc1ccc(N2C(=O)CCSC2=S)cc1C	n

---

# assay_name: NCI Yeast Anticancer Drug Screen. Data for the sgs1 mgt1 strain (AID 161);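 also: 0% = growth of cultures given vehicle only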
# condition_label: S. cerevisiae sgs1 mgt1 strain, at 50.0 µM (retest, dose inferred, filed as 5.0)
This is part of a sample that, as a whole, favours compounds with a hit. Of some 79,000 tested, about 15% had one in any assay. Activity calls are given as the source filed them. No stated cut-off is given here; in the data, active means growth inhibition above about 70%; inactive means the rest.
Outcomes: active, inactive

compound	class_assignment
CCCCCCCCCCCCCCCCCC(=O)OCCN1C(=O)c2ccccc2C1=O	inactive
O=C(Cc1nc2ccccc2s1)C(=O)Nc1ccc(Cl)cc1	inactive
COc1cccc(C=Nc2ccc(I)cc2)c1O.COc1cccc(C=Nc2ccc(I)cc2)c1O.[Co]	inactive
COc1ccc(Cc2c(-c3ccc(C)cc3)n[nH]c(=O)c2C2C(=O)N(c3ccccc3)N=C2c2ccccc2)cc1 (configuration not stated)	active
O=C1c2ccccc2C(=O)c2c1cc(O)c(O)c2O	active
N#CNc1nc(N)c(-c2ccc(Cl)cc2)c(C(=O)Nc2ccc(Cl)c(Cl)c2)n1	inactive
CC1OC(c2ccc3c(c2)OCO3)OC1C (configuration not stated)	inactive
CC(C)(N)COB(c1ccccc1)c1ccccc1	active
COc1ccc(/C=C2\N=C(c3ccco3)OC2=O)cc1Br	inactive
CC1=CC2N(C=C1)C(c1ccccc1)=NON2c1cc(C)ccn1 (configuration not stated)	inactive
CC(=O)OC1CCC2(C)C(=CCC3C2CCC2(C)C(C(C)N)CCC32)C1 (configuration not stated)	active
CCC(=NCCCCCCN=C(CC)c1cc(C)cc([N+](=O)[O-])c1O)c1cc(C)cc([N+](=O)[O-])c1O.[Fe]	inactive
CC(=O)Nc1cccc(C(=O)O)c1	inactive
Cc1ccc(C(c2ccc(N(C)C)cc2)c2ccc(N(C)C)cc2)cc1	active
C/C(=C/C(=O)/C=C/c1ccccc1)c1c(C)[nH]c2ccccc12	inactive
CN(C)C(=O)Nc1ccc(Cc2ccc(NC(=O)N(C)C)cc2)cc1	inactive
CSc1cccc(N2C(=O)C=CC2=O)c1	active
CC1CCC(C)(C)c2cc([N+](=O)[O-])cc([N+](=O)[O-])c21 (configuration not stated)	active
O=C(Nc1ccc(Cl)c(Cl)c1Cl)Oc1c(Cl)c(Cl)c(Cl)c(Cl)c1Cl	active
CCCCCCCCCCCC(=O)C(=O)c1ccc(O)cc1O	active
N#Cc1ccc(C2Oc3ccc(Cl)cc3C=C2[N+](=O)[O-])cc1 (configuration not stated)	active
COC(=O)c1nc(Cl)nc(Cl)c1N	active
COc1ccc2nc(N/N=C/c3ccccn3)cc(C)c2c1	inactive
Nc1c(C(=O)O)cccc1[N+](=O)[O-]	inactive
CN(C)c1ccccc1CN1CCCN(Cc2ccccc2N(C)C)C1	inactive
CC(=O)Nc1cc(F)c2c(c1)Cc1ccccc1-2	active
O=S(=O)(Nc1ccc(NS(=O)(=O)c2ccccc2)c(N2N=N2)c1)c1ccccc1	active
COC(=O)c1ccc(CCc2cc(O)ccc2O)cc1	active
CN1CCS(=O)(=O)C1=O	active
CN(C)C(=O)c1ccccc1SC(=S)NCc1ccccc1	active
OCC(c1ccccc1)[P+](c1ccccc1)(c1ccccc1)c1ccccc1 (configuration not stated)	inactive
CCOC(=O)N1CCN(CCCCCCOc2ccc(C(C)(C)C)cc2)CC1	active
CCOC(=O)C(CCOC)C(=O)OCC	inactive
O=[N+]([O-])C1=Cc2ccccc2S(=O)(=O)CC1	active
CN(C)CCCN=c1c2ccccc2n(O)c2ccccc12	inactive
CCOC(=O)C(Cc1cn(S(=O)(=O)c2ccccc2)c2ccccc12)(NC(C)=O)C(=O)OCC	inactive
O=S(=O)(Nc1ccc2ccc3cccc4ccc1c2c34)c1ccccc1	inactive
C/C(CCn1[nH]c(=O)ccc1=O)=N\NS(=O)(=O)c1ccc(C)cc1	inactive
CC(=O)NC1C(=O)CC(c2ccccc2)N(C)C1c1ccccc1 (configuration not stated)	inactive
CCCCCCCCCN1CCNC1=S	inactive
CC1=C2CCC3C(CCC4(C)C(C(C)CCCC(C)C)CCC34)C2(C)CCC1=O (configuration not stated)	inactive
O=C(NCCCCCCNC(=O)n1cc(F)c(=O)[nH]c1=O)NC1C(O)OC(CO)C(O)C1O (configuration not stated)	active

---

# assay_name: NCI Yeast Anticancer Drug Screen. Data for the cln2 rad14 strain (AID 165);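 also: 0% = growth equal to vehicle treated cultures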
# condition_label: S. cerevisiae cln2 rad14 strain, at 50.0 µM
This is part of a sample that, as a whole, favours compounds with a hit. Of some 79,000 tested, about 15% had one in any assay. Calls of active or inactive are those of the source. No stated cut-off is given here; in the data, active means growth inhibition above about 70%; inactive means the rest.
Outcomes: active, inactive

compound	class_assignment
O=C(CNc1cccc([N+](=O)[O-])c1)Nn1c(-c2ccccc2)nc2ccccc2c1=O	inactive
O=C(c1ccc(Cl)cc1)C1N=NCC1c1ccccc1 (stereo unspecified)	inactive
CC1=C(C(=O)NCc2ccccc2)C(c2ccccc2O)C(C(=O)NCc2ccccc2)=C(C)N1	active
Cc1cccc(Cl)c1NC(=S)Nc1cccc(C(F)(F)F)c1	active
Cc1ccc(C(=O)CC(N)C(=O)O)cc1 (stereo unspecified)	active
ON=C(CC(O)(C(F)(F)Cl)C(F)(F)Cl)CC(O)(C(F)(F)Cl)C(F)(F)Cl	active
COc1ccc(/C=C(\C(=O)c2ccc(O)cc2)c2ccccc2)cc1OC	active
Cc1c(Cl)c(S(N)(=O)=O)cc2c1NC=NS2(=O)=O	inactive
C[N+](C)(CCO)Cc1ccccc1	inactive
O=C(CC(O)(C(F)(F)F)C(F)(F)F)C(c1ccccc1)C(O)(C(F)(F)F)C(F)(F)F (stereo unspecified)	active
COc1c2c3c(ccnc3c3ccccc13)C(=O)N2C	inactive
Cn1c2c(c3ccccc31)CCN(CCCN1CCN(c3cccc(Cl)c3)CC1)C2=O	active
Cc1[nH]ccc2c(C)c3nc4ccccc4c3cc12	active
CC1(C)CC(O)C(O)C1 (stereo unspecified)	inactive
O=S(=O)(CCNCCCCC1CCCCC1)SCCNCCCCC1CCCCC1	inactive
COc1cc(Cc2n[nH]c(=S)n2-c2ccccc2)c(S(N)(=O)=O)cc1OC	inactive

---

# assay_name: NCI Yeast Anticancer Drug Screen. Data for the sgs1 mgt1 strain (AID 161);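 also: 0% = growth of cultures given vehicle only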
# condition_label: S. cerevisiae sgs1 mgt1 strain, at 5.0 µM (retest, dose inferred, filed as 0.5), active compounds read high
Compounds without any hit were thinned out: in the full panel of roughly 79,000, 15% have a hit.

molecule	growth inhibition (%)
Oc1cc(C(c2ccccc2)c2ccccc2)c2ccccc2c1O	20
COc1ccc(N=NN2CCCC2)cc1	45
O=C(/C=C/c1ccc([N+](=O)[O-])o1)N1CCN(Cc2ccccc2)CC1	55
COc1ccc2c(c1)[n+]([O-])c(C(N)=O)c(N)[n+]2[O-]	17
CN(C)C(N)=NC#N	27
c1ccc(-c2c[nH]c(-c3ccccc3)c2-c2ccccc2)cc1	-15
Cc1cc(O)ccc1N=Nc1ccccc1	-1
Oc1cc(F)ccc1-c1ccc(F)cc1	13
CCOC(=O)C(=Cc1ccccc1)C(=O)OCC	9
CCOC(=O)C(=N\Nc1cccc(C)c1C)/C(C)=N\NC(N)=S	32
CC(=O)Nc1c([N+](=O)[O-])cc2c3c(cccc13)C=C2	6
CCCCOc1ccc(NC(=S)Nc2ccc(OCCN(CC)CC)cc2)cc1	21
Oc1ccc(C23CC4CC(CC(C4)C2)C3)cc1	-56
Cc1ccc(S(=O)(=O)Nc2ccc(C)cc2C)cc1	-2
O=C1CCC(Cc2ccc(Cl)cc2Cl)C(=O)N1 (centres undefined)	45
COc1ccc(-c2cc3ccccc3c(=O)n2Cc2ccccc2)cc1	13
N#Cc1ccc(C2Oc3ccc(Cl)cc3C=C2[N+](=O)[O-])cc1 (centres undefined)	100
COC(=O)[C@@]12OC[C@]34[C@H]([C@@H](O)[C@@H]1O)[C@@]1(C)CC(=O)C(O)=C(C)[C@@H]1C[C@H]3OC(=O)[C@H](OC(=O)C(Cc1ccccc1)NC(=O)OC(C)(C)C)[C@@H]24 (some centres undefined)	27
CCN(CC)CCNc1c(OC)cc(C)c2sc3ccccc3c(=O)c12	0
CCC(C)Sc1nc2c([nH]1)c(=S)n(C)c(=O)n2C (centres undefined)	5
CC(C)NC(=O)O/N=C1\CCC2[C@@H]3CC=C4C[C@@H](OC(=O)NC(C)C)CC[C@]4(C)C3CC[C@]12C (some centres undefined)	90
CC(=O)C(=C(I)I)c1ccccc1	-27
COc1ccc2ccc3c(c2c1)CCC(C(=O)O)C3CC(=O)O (centres undefined)	-11
CN(C)CC1CCc2c(ccc3ccccc23)C1=O (centres undefined)	29
CCCCCCCN=C(N)c1ccc(C(=O)OC2CCCCC2)cc1	34
[O-]c1c(-c2cccc3ccccc23)sc(-c2cccc3ccccc23)[n+]1-c1ccccc1	8
CCOC(=O)Nc1cc2c(cn1)[nH]c1ccccc12	-1
CC1(C)C(=O)N(CCCCCCN2C(=O)C(C)(C)c3ccccc32)c2ccccc21	5
COc1ccc(/C=C2/C(=O)ON=C2C)cc1OC	-14
CC(C)c1cc(O)c(C(C)(C)C)cc1Cl	-1
CC(=O)Nc1ccc(C(=O)NN2C(=O)C(Cl)C2c2cc(Br)cc(Br)c2O)cc1 (centres undefined)	-1
O=C(CC(=O)c1ccccc1NC1=Cc2ccccc2C(=O)C1=O)C(=O)NC1=C(Cl)C(=O)c2ccccc2C1=O	14
O=C1CCC/C1=C\c1ccccc1	3
CC12CCc3ccccc3C1=Nc1ccccc12 (centres undefined)	8
Cn1c(-c2ccccc2)c(CCNC(=O)C2CCC2)c2ccccc21	12
O=C(Nc1ccc(Cl)c(Cl)c1Cl)Oc1c(Cl)c(Cl)c(Cl)c(Cl)c1Cl	43
O=S(=O)(Nc1ccc(Cl)cc1)c1ccccc1	1
CCc1[nH]c2ccccc2c1N1C(=O)CC2(CCN(Cc3ccccc3)CC2)CC1=O	-75
C=C1C(O)C2(O)OCC34C(CC5C(C)=CC(=O)C(O)C5(C)C23)OC(=O)C(OC(=O)C/C=C/CCCCCCCC)C14 (centres undefined)	75
